Tested on: A549 NSCLC
Test: NCI tumour cell line growth inhibition, 48 h
Each entry below lists one item and its recorded TGI value.
State the answer as a number, implicitly in µM.

Any idea what its TGI is? The compound is CCOC(=O)CNc1nc(=O)c2c(=O)oc(Cl)cc2o1
40.6

Any idea what its TGI is? The compound is CC(C)=CCC/C(C)=C/CC/C(C)=C/CC/C(=C/CC/C(C)=C\CC/C(C)=C/CC/C(C)=C/CC/C(C)=C/Cc1cc(O)ccc1O)CO
22.6

====

Tested on: OVCAR-3 ovarian
Assay: NCI tumour cell line growth inhibition, 48 h
Each entry below lists one item and its recorded TGI value.

Please review the following examples before continuing.
[
  {
    "molecule": "CC(=O)N=C1N(/C=C2\\C(=O)Oc3ccccc3C2=O)C(=O)/C(=C/c2ccc(Cl)cc2Cl)N1C",
    "TGI": "> 100 µM"
  },
  {
    "molecule": "O=S(=O)(/N=C(\\NO)Nc1ccc(Cl)cc1)c1cccc2nsnc12",
    "TGI": "70 µM"
  },
  {
    "molecule": "O=C1C(Cl)C(c2ccccc2O)N1n1cnc2ccccc2c1=O (stereo not given)",
    "TGI": "> 100 µM"
  },
  {
    "molecule": "NNC(=O)c1nnn(CCc2ccccc2)c1C(=O)NN",
    "TGI": "> 100 µM"
  },
  {
    "molecule": "Nc1ccn(C2OC(COC(=O)C34CC5CC(CC(C5)C3)C4)C(O)C2O)c(=O)n1 (stereo not given)",
    "TGI": "> 100 µM"
  },
  {
    "molecule": "COc1ccc(CN=C(N)N)c2ccccc12",
    "TGI": "> 100 µM"
  },
  {
    "molecule": "COc1cccc(/C=C/C(=O)c2ccc(Cl)cc2Cl)c1",
    "TGI": "25.2 µM"
  },
  {
    "molecule": "CC[C@H]1C=CCC[C@@]2(C[C@@H]3CC[C@H]4[C@@H](C(=O)OCCCCCCCCCCCCCCCC(=O)N(CCCN)C[C@@H](O)CCN)[C@@]5(CCC[C@@H](C)O5)NC(=[N+]34)N2)O1",
    "TGI": "> 10 µM"
  },
  {
    "molecule": "Nc1nc(N)c2cc(NCc3ccc(Cl)c(Cl)c3)ccc2n1",
    "TGI": "2.24 µM"
  }
]

Shift focus to the following entry.
Any idea what its TGI is? The molecule is COC1=CC(=O)C2C(C1=O)C(c1ccccc1)[C@H]2C (stereo not given in full)
> 100 µM
